Assignment: determine reported TGI for the given compounds.
System: IGROV1 ovarian
Assay: NCI tumour cell line growth inhibition, 48 h

compound	target or test system	TGI
C=C1C(=O)O[C@@H]2C[C@@H](C)[C@@H]3C=CC(=O)[C@@]3(C)[C@@H](O)[C@H]12	IGROV1 ovarian	8.1 µM
C=CCOc1cc(NC(=S)c2ccoc2C)ccc1OC	IGROV1 ovarian	> 100 µM

Now for the compound whose TGI we want.
**Query** Entry Cc1cc(-c2cccc3ccccc23)c(C#N)c(=S)n1C1OC(CO)C(O)C(O)C1O (stereo not drawn) has what TGI?
**Result** > 100 µM

###

Assignment: determine reported TGI for the given compounds.
Test system: UACC-62 melanoma
Assay: NCI tumour cell line growth inhibition, 48 h

compound	TGI
CC(C)(C)[Si](C)(C)OCC1OC(n2cnc3c(N)ncnc32)CC1O (stereo not drawn)	> 100 µM
O=C1NCC(CSc2nc3cc(C4CCCc5c4[nH]c4ccccc54)ccc3o2)N1 (stereo not drawn)	> 100 µM

Now for the compound whose TGI we want.
**Query** Entry COc1ccc([C@H]2CC(=O)C[C@H](c3ccc(OC)cc3)C23C(=O)c2ccccc2C3=O)cc1 has what TGI?
**Result** > 100 µM
